Measured inhibition at 10 µM accompanies every entry in the list below.
Biological target: hERG (KCNH2) (Homo sapiens)
Sequence (Q12809 whole entry): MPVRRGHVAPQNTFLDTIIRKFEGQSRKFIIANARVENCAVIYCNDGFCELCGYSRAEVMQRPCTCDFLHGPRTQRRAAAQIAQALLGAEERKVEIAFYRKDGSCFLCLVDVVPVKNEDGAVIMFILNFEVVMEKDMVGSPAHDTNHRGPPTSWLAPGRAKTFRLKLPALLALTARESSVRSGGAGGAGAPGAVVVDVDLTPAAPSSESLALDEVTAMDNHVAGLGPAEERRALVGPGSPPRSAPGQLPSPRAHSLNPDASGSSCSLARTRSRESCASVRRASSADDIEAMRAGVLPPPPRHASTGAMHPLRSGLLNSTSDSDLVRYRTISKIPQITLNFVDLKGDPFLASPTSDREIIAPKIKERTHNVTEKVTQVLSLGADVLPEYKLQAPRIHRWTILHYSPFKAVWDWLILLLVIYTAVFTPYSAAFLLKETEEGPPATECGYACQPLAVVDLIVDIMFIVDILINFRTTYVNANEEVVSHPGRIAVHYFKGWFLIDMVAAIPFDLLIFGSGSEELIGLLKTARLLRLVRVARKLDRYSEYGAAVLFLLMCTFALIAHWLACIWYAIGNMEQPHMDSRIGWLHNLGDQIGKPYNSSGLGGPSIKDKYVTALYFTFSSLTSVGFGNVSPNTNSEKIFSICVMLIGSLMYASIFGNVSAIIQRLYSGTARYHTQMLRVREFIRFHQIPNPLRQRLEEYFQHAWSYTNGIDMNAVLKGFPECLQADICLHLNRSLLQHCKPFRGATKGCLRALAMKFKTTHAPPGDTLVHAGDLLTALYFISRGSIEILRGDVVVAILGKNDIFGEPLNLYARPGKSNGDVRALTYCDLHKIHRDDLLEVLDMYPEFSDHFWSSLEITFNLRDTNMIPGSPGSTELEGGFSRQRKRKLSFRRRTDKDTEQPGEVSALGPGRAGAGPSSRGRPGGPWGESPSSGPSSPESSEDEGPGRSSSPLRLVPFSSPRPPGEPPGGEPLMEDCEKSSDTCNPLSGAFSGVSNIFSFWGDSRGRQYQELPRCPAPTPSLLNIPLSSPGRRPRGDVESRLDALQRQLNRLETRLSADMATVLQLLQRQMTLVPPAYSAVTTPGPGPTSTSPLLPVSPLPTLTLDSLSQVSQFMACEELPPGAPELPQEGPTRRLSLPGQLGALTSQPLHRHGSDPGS
Assay: Displacement of [35S]-MK0499 from human ERG receptor expressed in HEK293 cells at 10 uM
Format: cell-based
Conditions: HEK293 cells expressing human ERG, probe [35S]-MK0499
// note: answer is a bare numeric in %

{"itemSmiles": "CC(C)N1C(=O)[C@H](NC(=O)[C@@H](Cc2ccccc2OC(F)(F)F)NC(=O)OC(C)(C)C)CCc2ccccc21", "assayedTarget": "hERG (KCNH2) (Homo sapiens)", "inhibition at 10 µM / %": 18}

Summary for this molecule, `CC(C)N1C(=O)[C@H](NC(=O)[C@@H](Cc2c(F)cccc2F)NC(=O)OC(C)(C)C)CCc2ccccc21` : inhibition at 10 µM is 4

Looking up `CC(C)N1C(=O)[C@H](NC(=O)[C@H](Cc2ccccc2OC(F)(F)F)NC(=O)OC(C)(C)C)CCc2ccccc21` , I see its inhibition at 10 µM listed as 0

response.value for `CC(C)N1C(=O)[C@H](NC(=O)[C@@H](Cc2cccc(F)c2C(F)(F)F)NC(=O)OC(C)(C)C)CCc2ccccc21` (field: inhibition at 10 µM) = 39

Form: molecule = `CC(C)(C)OC(=O)N[C@H](Cc1ccccc1)C(=O)N[C@@H]1CCc2ccccc2N(CC(F)(F)F)C1=O` ; inhibition at 10 µM = 16

molecule `CC(C)N1C(=O)[C@H](NC(=O)[C@@H](Cc2ccccc2F)NC(=O)OC(C)(C)C)CCc2ccccc21` , inhibition at 10 µM observed: 8
